molecular target: PRMT3 (Homo sapiens, UniProt O60678); test: SAHH-coupled fluorescence assay, inhibition of PRMT3; type: biochemical; parameters: PRMT3 (residues 211-531) was cloned into the pET28a-MHL expression vector; tag of the pET28a-MHL vector (not described); made in house; host or cells: Escherichia coli BL21(DE3)
Sequence (O60678 211-531): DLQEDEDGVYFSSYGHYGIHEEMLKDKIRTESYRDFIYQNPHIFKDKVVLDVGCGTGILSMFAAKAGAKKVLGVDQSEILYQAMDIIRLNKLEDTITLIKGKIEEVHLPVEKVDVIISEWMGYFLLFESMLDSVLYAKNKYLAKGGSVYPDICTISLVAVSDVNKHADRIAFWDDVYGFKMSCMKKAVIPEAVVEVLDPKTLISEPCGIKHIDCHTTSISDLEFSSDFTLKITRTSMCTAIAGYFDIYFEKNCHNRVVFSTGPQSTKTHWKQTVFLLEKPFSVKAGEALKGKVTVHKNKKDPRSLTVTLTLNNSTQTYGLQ
Recorded inhibition at 10 µM values for a group of molecules are listed next.
measured endpoint: inhibition at 10 µM (%)

INSERT INTO assay_data (molecule, assayed_system, measured_endpoint, unit_text, reading) VALUES
  ('N=C(NCCCSC[C@H]1O[C@@H](n2cnc3c(NCCCc4ccccc4)ncnc32)[C@H](O)[C@@H]1O)NCc1ccccc1 [Compound 19k]', 'PRMT3 (Homo sapiens, UniProt O60678)', 'inhibition at 10 µM', '%', 10),
  ('N=C(NCCCSC[C@H]1O[C@@H](n2cnc3c(N)ncnc32)[C@H](O)[C@@H]1O)Nc1cccc(-c2cccnc2)c1', 'PRMT3 (Homo sapiens, UniProt O60678)', 'inhibition at 10 µM', '%', 22),
  ('Nc1ncnc2c1ncn2[C@@H]1O[C@H](CSCCNC(=O)NCc2ccc(-c3cc[nH]n3)cc2)[C@@H](O)[C@H]1O', 'PRMT3 (Homo sapiens, UniProt O60678)', 'inhibition at 10 µM', '%', 9),
  ('Nc1ncnc2c1ncn2[C@@H]1O[C@H](CSCCNCc2cccc(-c3ccc(O)cc3)c2)[C@@H](O)[C@H]1O [Compound 10b]', 'PRMT3 (Homo sapiens, UniProt O60678)', 'inhibition at 10 µM', '%', 1),
  ('COc1cc2nc(-c3ccccc3O)nc(NCCSC[C@H]3O[C@@H](n4cnc5c(N)ncnc54)[C@H](O)[C@@H]3O)c2cc1OC [Compound 12h]', 'PRMT3 (Homo sapiens, UniProt O60678)', 'inhibition at 10 µM', '%', 12),
  ('Nc1ncnc2c1ncn2[C@@H]1O[C@H](CSCCNCc2cccc(-c3cccc(F)c3)c2)[C@@H](O)[C@H]1O [Compound 10c]', 'PRMT3 (Homo sapiens, UniProt O60678)', 'inhibition at 10 µM', '%', 12);

----------
target: PRMT3 (Homo sapiens)
measured endpoint: IC50 (nM)

INSERT INTO results (molecular_string, measured_endpoint, unit_text, reading) VALUES
  ('Nc1ncnc2c1ncn2[C@@H]1O[C@H](CSCCNC(=O)NCc2ccccc2)[C@@H](O)[C@H]1O', 'IC50', 'nM', 321);

----------
molecular target: UniProt Q86X55; assay: radioactive assay (Reaction Biology Corp.), inhibition of PRMT4; format: biochemical
Sequence (Q86X55 whole entry, species assumed): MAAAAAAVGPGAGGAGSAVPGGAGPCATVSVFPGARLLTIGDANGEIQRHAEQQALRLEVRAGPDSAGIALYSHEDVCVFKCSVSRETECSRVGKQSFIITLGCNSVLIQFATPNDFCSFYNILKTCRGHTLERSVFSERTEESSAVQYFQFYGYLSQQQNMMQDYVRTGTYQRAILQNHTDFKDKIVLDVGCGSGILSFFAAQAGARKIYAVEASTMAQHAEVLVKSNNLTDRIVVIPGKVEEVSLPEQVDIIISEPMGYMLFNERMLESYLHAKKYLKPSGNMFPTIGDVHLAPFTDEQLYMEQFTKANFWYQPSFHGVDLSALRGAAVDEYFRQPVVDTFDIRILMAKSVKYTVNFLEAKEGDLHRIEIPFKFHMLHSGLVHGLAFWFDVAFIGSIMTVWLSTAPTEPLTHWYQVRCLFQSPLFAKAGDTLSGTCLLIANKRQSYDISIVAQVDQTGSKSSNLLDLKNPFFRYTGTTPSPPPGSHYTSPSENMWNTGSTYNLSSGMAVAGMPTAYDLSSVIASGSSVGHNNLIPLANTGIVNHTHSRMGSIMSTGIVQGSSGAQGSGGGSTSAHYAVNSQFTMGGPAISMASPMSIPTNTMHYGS
measured endpoint: inhibition at 10 µM (%)

INSERT INTO measurements (molecule, assayed_system, measured_endpoint, unit_text, reading) VALUES
  ('Nc1ncnc2c1ncn2[C@@H]1O[C@H](CSCCNC(=O)Nc2ccccc2)[C@@H](O)[C@H]1O [Compound 7f]', 'UniProt Q86X55', 'inhibition at 10 µM', '%', 84),
  ('Nc1ncnc2c1ncn2[C@@H]1O[C@H](CSCCNCc2cccc(-c3ccc(O)cc3)c2)[C@@H](O)[C@H]1O [Compound 10b]', 'UniProt Q86X55', 'inhibition at 10 µM', '%', 100),
  ('N=C(NCCCSC[C@H]1O[C@@H](n2cnc3c(NCCCc4ccccc4)ncnc32)[C@H](O)[C@@H]1O)NC1CCC1 [Compound 19c]', 'UniProt Q86X55', 'inhibition at 10 µM', '%', 50),
  ('N=C(NCCCSC[C@H]1O[C@@H](n2cnc3c(N)ncnc32)[C@H](O)[C@@H]1O)Nc1cccc(-c2ccc(F)nc2)c1 [Compound 6n]', 'UniProt Q86X55', 'inhibition at 10 µM', '%', 100),
  ('Nc1ncnc2c1ncn2[C@@H]1O[C@H](CSCCNC(=O)NCc2ccccc2)[C@@H](O)[C@H]1O [Compound 7a]', 'UniProt Q86X55', 'inhibition at 10 µM', '%', 97),
  ('N=C(NCCCSC[C@H]1O[C@@H](n2cnc3c(N)ncnc32)[C@H](O)[C@@H]1O)Nc1cccc(-c2n[nH]cc2C(F)(F)F)c1 [Compound 6q]', 'UniProt Q86X55', 'inhibition at 10 µM', '%', 100),
  ('N=C(NCCCSC[C@H]1O[C@@H](n2cnc3c(N)ncnc32)[C@H](O)[C@@H]1O)Nc1ccccc1 [Compound 5d]', 'UniProt Q86X55', 'inhibition at 10 µM', '%', 99);

The measured values listed here are drawn from patent US20260306527A1.
